- tested-target: Glycogen synthase kinase-3 beta (Homo sapiens) (UniProt P49841)
- Sequence (P49841 whole entry, looked up): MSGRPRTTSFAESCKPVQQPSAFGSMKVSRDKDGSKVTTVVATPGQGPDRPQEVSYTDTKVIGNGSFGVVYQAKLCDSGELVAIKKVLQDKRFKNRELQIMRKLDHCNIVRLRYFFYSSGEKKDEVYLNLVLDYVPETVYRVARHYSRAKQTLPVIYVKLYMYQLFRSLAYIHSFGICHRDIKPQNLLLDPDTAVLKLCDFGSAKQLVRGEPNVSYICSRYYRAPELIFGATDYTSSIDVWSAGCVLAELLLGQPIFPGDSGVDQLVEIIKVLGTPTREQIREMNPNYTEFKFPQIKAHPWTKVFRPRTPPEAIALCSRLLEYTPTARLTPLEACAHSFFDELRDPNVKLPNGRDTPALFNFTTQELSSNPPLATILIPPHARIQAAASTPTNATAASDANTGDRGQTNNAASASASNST
- condition-label: Compound concentration 20.0 uM
- Description: Thermal Shift Assay. Domain: start/stop: M26-R383
endpoint-name: ΔTm (°C)
Please reply with the bare figure in °C and do not write the unit itself.

CC(C)c1cc(C(=O)N2Cc3ccc(CN4CCN(C)CC4)cc3C2)c(O)cc1O = -0.43
CNC(=O)c1cc(Nc2ccnc(Nc3ccc(CCNC(=O)OC(C)(C)C)cc3)n2)n[nH]1 = -1.3
COc1cccc(-c2nccc3c2CN(c2ccccc2)C3=O)c1 = -2.56
CCn1c(=S)[nH]c2cc3c(NCc4ccccc4N4CCC(CO)CC4)ncnc3cc21 = -0.82

Switching to the query record.
The reported ΔTm of the compound CC(C)(C)C1CCN(C(=O)n2ncc(C(O)(c3ccccc3)c3ccccc3)n2)CC1 was -5.44
